Where do the numbers come from? From ChEMBL document CHEMBL1148858.

Below: a set of entries, each annotated with reported EC50.
- Tested on: Human immunodeficiency virus 1
- assay.summary: Antiviral activity against HIV1 with reverse transcriptase K103N mutation in CEM cells assessed as inhibition of virus-induced giant cell formation
- Type: functional, organism-based
- assay.context: Human immunodeficiency virus 1, CCRF-CEM
Return type: number; implicit unit nM.

# EC50 lookup, item `Cc1ccnc2c1NC(=O)c1cccnc1N2C1CC1` 1300

Repeat with `Cc1cc(C)cc(S(=O)(=O)n2c(=O)[nH]c3ccc(Cl)cc32)c1` 29

// next entry
# EC50 lookup, item `O=C1Nc2ccc(Cl)cc2[C@@](C#CC2CC2)(C(F)(F)F)O1` 218

====

- Tested on: Human immunodeficiency virus 1
- assay.summary: Antiviral activity against HIV1 with reverse transcriptase L100I mutation in CEM cells assessed as inhibition of virus-induced giant cell formation
- Assay type: functional, organism-based
- assay.context: Human immunodeficiency virus 1, CCRF-CEM
property.name: EC50

Past entries and their recorded results:
# EC50 lookup, item `Cc1cc(C)cc(Cn2c(=O)[nH]c3ccc(Cl)cc32)c1` 49 nM

Repeat with `Cc1cc(C)cc(S(=O)(=O)n2c(=O)[nH]c3ccc(Cl)cc32)c1` 6 nM

Next:
# EC50 lookup, item `Cc1ccnc2c1NC(=O)c1cccnc1N2C1CC1` 199 nM

Repeat with `O=c1[nH]c2ccc(Cl)cc2n1Cc1c(F)cccc1F` 3100 nM
